In this section, each of the molecules is paired with its reported IC50.
molecular target: EGFR phosphorylation in A431 (EGFR wild-type) cells (Homo sapiens (Human)); experiment: Inhibition of EGFR phosphorylation in A431 cells (ELISA); format: cell-based; settings: 1 h compound treatment, EGF stimulation, read-out: A431 cell (IC50/μM)
Sequence (P00533 25-1210): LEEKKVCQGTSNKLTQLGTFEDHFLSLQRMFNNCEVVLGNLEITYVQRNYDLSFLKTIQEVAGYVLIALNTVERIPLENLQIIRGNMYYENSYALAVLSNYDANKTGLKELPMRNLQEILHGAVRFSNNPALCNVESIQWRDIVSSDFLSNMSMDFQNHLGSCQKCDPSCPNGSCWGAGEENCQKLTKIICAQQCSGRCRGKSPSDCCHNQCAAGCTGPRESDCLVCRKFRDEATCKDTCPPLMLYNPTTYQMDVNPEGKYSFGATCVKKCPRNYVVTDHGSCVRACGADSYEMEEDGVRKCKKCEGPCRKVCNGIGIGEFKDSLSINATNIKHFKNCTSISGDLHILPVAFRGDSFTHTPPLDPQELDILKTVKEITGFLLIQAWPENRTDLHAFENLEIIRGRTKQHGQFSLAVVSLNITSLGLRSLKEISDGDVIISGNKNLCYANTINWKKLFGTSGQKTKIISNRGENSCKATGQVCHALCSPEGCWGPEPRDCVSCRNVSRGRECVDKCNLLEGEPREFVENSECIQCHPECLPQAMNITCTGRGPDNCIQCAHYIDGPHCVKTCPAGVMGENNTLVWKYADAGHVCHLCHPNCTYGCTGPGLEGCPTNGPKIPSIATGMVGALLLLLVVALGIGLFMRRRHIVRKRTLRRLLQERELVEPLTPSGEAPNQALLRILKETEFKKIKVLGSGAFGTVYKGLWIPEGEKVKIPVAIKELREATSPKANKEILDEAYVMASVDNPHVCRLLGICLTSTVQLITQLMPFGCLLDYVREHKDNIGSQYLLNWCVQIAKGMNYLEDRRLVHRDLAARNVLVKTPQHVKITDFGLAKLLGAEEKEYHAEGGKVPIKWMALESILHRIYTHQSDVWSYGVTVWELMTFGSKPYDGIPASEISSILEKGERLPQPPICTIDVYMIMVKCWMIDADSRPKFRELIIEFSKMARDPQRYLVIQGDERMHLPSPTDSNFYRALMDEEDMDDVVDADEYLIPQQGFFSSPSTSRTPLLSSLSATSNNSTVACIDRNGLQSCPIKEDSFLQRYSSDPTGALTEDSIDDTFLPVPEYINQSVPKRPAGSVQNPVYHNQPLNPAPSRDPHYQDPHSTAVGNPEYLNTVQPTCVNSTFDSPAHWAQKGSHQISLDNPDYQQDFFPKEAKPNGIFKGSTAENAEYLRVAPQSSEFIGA
API: value field is a number in µM; no unit string.

Below, 5 molecules whose answers are already recorded.
Prompt line: Entry C=CC(=O)Nc1cc(Nc2ncc3ccc(C4=CCCCC4)n3n2)c(OC)cc1N(C)CCN(C)C [Compound J-5] has what IC50?
Response line: 0.208

Prompt line: Query (molecule): C=CC(=O)Nc1cc(Nc2ncc3ccc(-c4cnn(C)c4)n3n2)c(OC)cc1N1CCN(C)CC1 [Compound J-4] ; field requested: IC50
Response line: 1.8

Prompt line: What measured IC50 goes with C=CC(=O)Nc1cc(Nc2ncc3ccc(-c4cnn(C)c4)n3n2)c(OC)cc1N(C)CCN(C)C [Compound J-1] ?
Response line: 0.112

Prompt line: Entry C=CC(=O)Nc1cc(Nc2cn3c(-c4ccn(C)c4)cnc3cn2)c(OC)cc1N(C)CCN(C)C [Compound J-16] has what IC50?
Response line: 0.211

Prompt line: Requested read-out: IC50. Entry: C=CC(=O)Nc1cc(Nc2ncc3ccc(-c4cnc5ccccc5c4)n3n2)c(OC)cc1N1CCC(N(C)C)CC1 [Compound J-13]
Response line: 0.301

Alright, here's another molecule for you.
Prompt line: GET /values?readout=IC50&item= C=CC(=O)Nc1cc(Nc2ncc3ccc(-c4ccccc4)n3n2)c(OC)cc1N(C)CCN(C)C [Compound J-11]
Response line: 0.237

Hey, just so you know, these numbers are from patent US10085983B2.
